METHOD_DESCRIPTION: 14-day oral gavage toxicokinetic study in rats
Assay type: in vivo
CONDITION_LABEL: both sexes, rat, plasma, po, 2 mg/kg, Mean Compound 1 Plasma Concentration, rats, oral 2 mg/kg, Day 1, 4 h, Overall
EXPERIMENTAL_READOUT: concentration at 4 h (ng/mL)
Response body: numeric value in ng/mL, unit text excluded.

Read the entry CN1CCN(c2ccc(Nc3ncc4cc5n(c4n3)C3(CCCCC3)CNC5=O)nc2)CC1 [Compound 1] and write its reported concentration at 4 h.
150

----------
METHOD_DESCRIPTION: 14-day oral gavage toxicokinetic study in rats
Assay type: in vivo
CONDITION_LABEL: male, rat, plasma, po, 30 mg/kg, Individual Compound 1 Plasma Concentration, rats, daily oral 30 mg/kg, Day 1, Male, 4 h
EXPERIMENTAL_READOUT: concentration at 4 h (ng/mL)
Just the number please, in ng/mL, no unit attached.

Input CN1CCN(c2ccc(Nc3ncc4cc5n(c4n3)C3(CCCCC3)CNC5=O)nc2)CC1 , output reported concentration at 4 h.
2660
